B1: SEC22B (parent)
chain: FPKKLAFAYLEDLHSEFDEQHGKK

Variants of: B1
Assay: protein stability index of a GFP-peptide fusion (GPS, HEK-293T) (PSI 1-6); higher = more stable;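 also: lentivirally expressed fusions sorted by FACS into six bins by GFP to DsRed ratio, PSI derived from sequencing read proportions per bin multiplied by bin number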
Conditions: c terminus: a fixed tail appended
Output fulfilled for protein stability index not less than 3; output not fulfilled otherwise.

Kindly determine if protein stability index recorded for H21C is above or exactly 3. not fulfilled

Can you handle K3T next? not fulfilled

Can you handle A8D next? fulfilled

Can you handle P2E next? fulfilled

Can you handle D12L next? not fulfilled

Can you handle K4H next? not fulfilled

Can you handle H21V next? not fulfilled

Can you handle F7P next? fulfilled

Can you handle F17I next? not fulfilled

Can you handle L13G next? fulfilled

Can you handle F1T next? fulfilled

Can you handle K23D next? fulfilled

Can you handle E16K next? not fulfilled

Can you handle F1D next? fulfilled

Can you handle Q20V next? not fulfilled

Can you handle K24S next? not fulfilled

Can you handle K3R next? not fulfilled

Can you handle Y9D next? fulfilled

Can you handle E19S next? not fulfilled

Can you handle L10G next? not fulfilled

Can you handle D12Y next? not fulfilled

Can you handle S15I next? not fulfilled

Can you handle D12H next? not fulfilled

Can you handle K24H next? not fulfilled

Can you handle L5D next? fulfilled

Can you handle D12M next? not fulfilled

Can you handle P2Q next? not fulfilled

Can you handle F7K next? fulfilled

Can you handle L10Q next? fulfilled

Can you handle D18G next? not fulfilled

Can you handle G22W next? not fulfilled

Can you handle F1Q next? fulfilled

Can you handle H21P next? not fulfilled

Can you handle E16V next? not fulfilled

Can you handle Q20S next? not fulfilled

Can you handle K4I next? not fulfilled

Can you handle F17Q next? fulfilled

Can you handle Y9P next? not fulfilled

Can you handle L5E next? fulfilled

Can you handle F1L next? fulfilled

Can you handle S15Y next? not fulfilled
